Quick list: OD (450 nm) per entry.
Target: T1, human TIGIT-Fc (human, UniProt Q495A1 22-141, limits assumed)
T1 construct: not shown: Fc; not described
T1 sequence (looked up): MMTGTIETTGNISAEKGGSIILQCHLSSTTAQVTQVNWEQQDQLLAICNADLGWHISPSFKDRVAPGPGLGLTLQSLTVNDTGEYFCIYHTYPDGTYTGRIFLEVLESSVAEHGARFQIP
Experiment: CD155 competition ELISA, single point; also: test concentration or dose not given here
Give the value, in units of OD, as a plain number.

Some solved cases for reference:
# Binder, Assay endpoint, Quantitative readout
data = [
    ("TIGIT-SC166 (Fc fusion, VHH-Fc) VHH: EVQLVESGGGLVQPGGSLRLSCAASGFTFDRSWMGWFRQAPGKEREWVASVLRGGYTWYADSVKGRFTISADNSKNTAYLQMNSLKPEDTAVYYCAREGSGYASDYWGQGTLVTVSS", "OD (450 nm)", 0.328),
    ("TIGIT-SC52 (Fc fusion, VHH-Fc) VHH: EVQLVESGGGLVQPGGSLRLSCAASGFLFDSYAMGWFRQAPGKEREFVAAISTGGGWRTYADSVKGRFTISADNSKNTAYLQMNSLKPEDTAVYYCAKRGNDNWYFDLWGQGTLVTVSS", "OD (450 nm)", 0.351),
    ("TIGIT-SC144 (Fc fusion, VHH-Fc) VHH: EVQLVESGGGLVQPGGSLRLSCAASGFTLENNMMGWFRQAPGKEREFVAAISPSGTLRAYADSVKGRFTISADNSKNTAYLQMNSLKPEDTAVYYCAGIHDSGVPLGNWGQGTLVTVSS", "OD (450 nm)", 0.686),
    ("TIGIT-SC95 (Fc fusion, VHH-Fc) VHH: EVQLVESGGGLVQPGGSLRLSCAASGPTFSTNVMGWFRQAPGKEREFVSSIHWGGSSTVYADSVKGRFTISADNSKNTAYLQMNSLKPEDTAVYYCVTYSAYDFRNAWGQGTLVTVSS", "OD (450 nm)", 0.613),
    ("TIGIT-SC68 (Fc fusion, VHH-Fc) VHH: EVQLVESGGGLVQPGGSLRLSCAASGHTFRGYAMGWFRQAPGKEREAVAAISWSGDNTYYADSVKGRFTISADNSKNTAYLQMNSLKPEDTAVYYCGDYEGHWGQGTLVTVSS", "OD (450 nm)", 0.607),
    ("TIGIT-SC46 (Fc fusion, VHH-Fc) VHH: EVQLVESGGGLVQPGGSLRLSCAASGRTFSNYVMGWFRQAPGKERELVASISSFGSTYYADSVKGRFTISADNSKNTAYLQMNSLKPEDTAVYYCARSGGFLSDWGQGTLVTVSS", "OD (450 nm)", 0.111),
    ("TIGIT-SC180 (Fc fusion, VHH-Fc) VHH: EVQLVESGGGLVQPGGSLRLSCAASGFTLNDYAMGWFRQAPGKERELVAWIARYDGSTLYADSVKGRFTISADNSKNTAYLQMNSLKPEDTAVYYCASEVASGETDYWGQGTLVTVSS", "OD (450 nm)", 0.639),
    ("TIGIT-SC32 (Fc fusion, VHH-Fc) VHH: EVQLVESGGGLVQPGGSLRLSCAASGFAFGDSWMGWFRQAPGKERELVAAIDWSGGSALYADSVKGRFTISADNSKNTALQMNSLKPEDTAVYYCAKVHSDFRAGWDVWGQGTLVTVSS", "OD (450 nm)", 0.86),
]

Okay, now this binder:
Input line: Entry TIGIT-SC29 (Fc fusion, VHH-Fc) VHH: EVQLVESGGGLVQPGGSLRLSCAASGFTLENNMMGWFRQAPGKERELVAAIDWSGGSTIYADSVKGRFTISADNSKNTAYLQMNSLKPEDTAVYYCARGHDYGDYIAYWGQGTLVTVSS has what OD (450 nm)?
Output line: 0.399

From: patent US20260184782A1
